Test system: Erysiphe graminis f. sp. tritici
TEST: Test L: wheat powdery mildew, preventive spray on wheat seedlings
CONDITION_CONTEXT: 40 ppm (*)
Marks after values point to notes of the source that are not given here.
TEST_READOUT: Test L disease control rating

[[record]]
compound = "CCC(C)Cn1c(-c2ccc(F)cc2Cl)c(Cl)nc(-n2ccc(C(F)(F)F)n2)c1=O (centres unmarked) [compound 167]"
target_desc = "Erysiphe graminis f. sp. tritici"
measured_result = "0* %"

[[record]]
compound = "CCC(CC)Cn1c(-c2c(F)cccc2F)c(Cl)nc(-n2cccn2)c1=O [compound 183]"
target_desc = "Erysiphe graminis f. sp. tritici"
measured_result = "92* %"

[[record]]
compound = "CC(CO)n1c(-c2c(F)cccc2F)c(Cl)nc(-n2cccn2)c1=O (centres unmarked) [compound 213]"
target_desc = "Erysiphe graminis f. sp. tritici"
measured_result = "0* %"

[[record]]
compound = "CC(C)Cn1c(-c2c(F)cccc2F)c(Cl)nc(-c2nccs2)c1=O [compound 101]"
target_desc = "Erysiphe graminis f. sp. tritici"
measured_result = "0* %"

[[record]]
compound = "O=c1c(-n2cncn2)nc(Cl)c(-c2c(F)cccc2F)n1CCCl [compound 125]"
target_desc = "Erysiphe graminis f. sp. tritici"
measured_result = "0* %"


Each of the following entries comes with a recorded value; kindly state Test L disease control rating for each.
1. O=c1c(-n2cncn2)nc(Cl)c(-c2c(F)cccc2F)n1Cc1ccco1 [compound 188]
2. CC(C)Cn1c(-c2ccoc2)c(Cl)nc(-n2cccn2)c1=O [compound 153]
3. CCCCn1c(-c2c(F)cc(F)cc2F)c(Cl)nc(-c2ccccn2)c1=O [compound 240]
4. CCC(C)Cn1c(-c2c(F)cccc2F)c(Cl)nc(-n2ccc(C#N)n2)c1=O (centres unmarked) [compound 81]
5. CC(CCl)n1c(-c2c(F)cccc2F)c(Cl)nc(-n2cncn2)c1=O (centres unmarked) [compound 214]
6. COC=C(C)n1c(-c2c(F)cccc2F)c(Cl)nc(-n2cncn2)c1=O [compound 212]

result:
0* %
0* %
98* %
0* %
0* %
0* %
